assay: Pharmacokinetics in mice (plasma, HPLC); format: in vivo, mouse; conditions: female, ND4 Swiss Webster, mouse, plasma, ip, 50 mg/kg, vehicle water
METRIC: Cmax

stdin: Which Cmax value is on record for CC(=O)c1cc(Nc2cc(C)[n+](C)c(N)n2)cc(C(C)=O)c1 ?
stdout: 18.9 µg/mL

stdin: Please report the recorded Cmax for CC(=O)c1cc(N)cc(C(C)=O)c1 .
stdout: 13.4 µg/mL

stdin: I'd like to know its Cmax. The compound in question is CC(=O)c1cc(Nc2cc(C)nc(N)n2)cc(C(C)=O)c1
stdout: 5.7 µg/mL

---

assay: Pharmacokinetics in mice (plasma, HPLC); format: in vivo, mouse; conditions: female, ND4 Swiss Webster, mouse, plasma, ip, 20 mg/kg, vehicle water
METRIC: Cmax (ng/mL)
A number alone suffices; assume ng/mL.

stdin: Looking for the measured Cmax of CC(=O)c1cccc(Nc2cc(C)nc(N)n2)c1 [Compound No. 15] , can you help?
stdout: 1930

---

Experiment: In vitro metabolism with mouse liver post-mitochondrial supernatant and NADPH
Assay type: in vitro ADME
Details: 60 min incubation
Experimental: Several female ND4 Swiss Webster mice were euthanized by carbon dioxide inhalation and the livers excised and rinsed with ice cold phosphate buffered saline (pH 7.4). The livers were minced, gently homogenized in 50 mM phosphate buffer (pH 7.4) with a Dounce homogenizer, and centrifuged at 9600× g for 20 min. […] The samples were then extracted, and analyzed by HPLC as described in section 7.1. […]
METRIC: metabolic conversion (drug altered, as judged by peak area) (%)
Field: numeric (%). Do not append units.

stdin: Given the entry CC(=O)c1cc(Nc2cc(C)[n+](C)c(N)n2)cc(C(C)=O)c1 , report its measured metabolic conversion (drug altered, as judged by peak area).
stdout: 43.5

stdin: // metabolic conversion (drug altered, as judged by peak area) lookup, key: CC(=O)c1cccc(Nc2cc(C)nc(N)n2)c1
stdout: 11.74

stdin: Which measured metabolic conversion (drug altered, as judged by peak area) value corresponds to CC(=O)c1cc(N)cc(C(C)=O)c1 ?
stdout: 17.28

stdin: Tell me the measured metabolic conversion (drug altered, as judged by peak area) of CC(=O)c1cc(Nc2cc(C)nc(N)n2)cc(C(C)=O)c1 , please.
stdout: 65.19

---

system: Plasmodium falciparum; test: Antimalarial activity in vitro, [3H]-hypoxanthine incorporation; format: cell-based; conditions: Plasmodium falciparum, DD2, clone Dd2; ± standard deviation; read-out: IC50
METRIC: IC50 (µM)
All answers are understood in µM, so give the number only.

stdin: Please give the measured IC50 for this molecule: CCc1nc(N)nc(N)c1-c1ccc(Cl)cc1
stdout: 104

---

assay: Pharmacokinetics in mice (plasma, HPLC); format: in vivo, mouse; conditions: female, ND4 Swiss Webster, plasma; mouse, oral, 50 mg/kg, vehicle water; read-out: tmax (converted)
METRIC: Tmax (min)
Please state the figure in min; there is no need to write the unit.

stdin: Param item = CC(=O)c1cc(Nc2cc(C)nc(N)n2)cc(C(C)=O)c1 [Compound No. 11] ; retrieve measured Tmax.
stdout: 15

---

test system: Plasmodium falciparum; experiment: Antimalarial activity in vitro, [3H]-hypoxanthine incorporation; format: cell-based; settings: Plasmodium falciparum, clone D10; Chloroquine column, unit inferred
METRIC: pIC50
# log scale: pIC50 equals minus log10 of the concentration in mol/L

stdin: Value lookup for pIC50; key = CCN(CC)CCCC(C)Nc1ccnc2cc(Cl)ccc12 (stereo not shown) [Chloroquine]
stdout: 7.57
